test system: SF-268; assay: NCI tumour cell line growth inhibition, 48 h
The source made the active and inactive calls. Rule as the data show it: active = GI50 up to about 1.1 µM and inactive = higher.

- compound: "COc1ccc(S(=O)(=O)NNS(C)(=O)=O)cc1"
  GI50: "> 100 µM (inactive)"
- compound: "CC1(CC2=C(C(=O)NCCO[Si](C)(C)C(C)(C)C)C3(OCCO3)C2=O)OCCO1"
  GI50: "> 100 µM (inactive)"
- compound: "CCOc1cc2c[n+](C)c3c4cc(OC)c(OC)cc4ccc3c2cc1OC"
  GI50: "> 100 µM (inactive)"
- compound: "NCCCNCCSSCc1ccccc1CSSCCNCCCN"
  GI50: "85.1 µM (inactive)"
- compound: "COCCOC1=CC(=O)c2c(O)ccc(O)c2C1=O"
  GI50: "1.89 µM (inactive)"
- compound: "COc1cc(C2SCC(=O)N2c2ccccn2)cc(OC)c1OC (configuration not stated)"
  GI50: "> 100 µM (inactive)"
- compound: "CSCCCN(CCCSC)CCCSC"
  GI50: "> 100 µM (inactive)"
- compound: "CC(C)N1C(C)[C@@H](c2ccccc2)O[P@]1(=O)CC1=CCCCC1 (some centres not stated)"
  GI50: "> 100 µM (inactive)"
- compound: "c1ccc2c(c1)n1nnnc1c1nnnn21"
  GI50: "85.1 µM (inactive)"
- compound: "CC(NC(C#N)CC12CC3CC(CC(C3)C1)C2)c1ccccc1 (configuration not stated)"
  GI50: "47.4 µM (inactive)"
- compound: "OC(c1ccccc1)c1c(-c2ccccc2)[nH]c(-c2ccccc2)c1C(O)c1ccccc1 (configuration not stated)"
  GI50: "4.16 µM (inactive)"
- compound: "Cc1ccc2c(=O)c3c(O)c4c(cc3n(C)c2c1)OC(C)(C)C=C4"
  GI50: "> 10 µM (inactive)"
